Known FPDc of a selection of molecules
TEST: Electrical activity assay on cell lines treated with a given drug. DMSO was used as a vehicle and a control, unblinded dofetilide was used as a control.
ASSAY_SETUP: human, ipsc-cm, 0.001 µM
Reply with just the number.

Illustrative cases are given below, each with its answer.
COc1ccc(CCN2CCC(Nc3nc4ccccc4n3Cc3ccc(F)cc3)CC2)cc1 [ASTEMIZOLE]: 55.33
C[S+](C)[O-] [DIMETHYL SULFOXIDE]: 55.35
COC(=O)C1=C(C)NC(C)=C(C(=O)OC)C1c1ccccc1[N+](=O)[O-] [NIFEDIPINE]: 50.88

# input for lookup
Q) Would you mind telling me what FPDc value was observed for CCCCCCCN(CC)CCCC(O)c1ccc(NS(C)(=O)=O)cc1 (centres undefined) [IBUTILIDE] ?
A) 63.97

====

TEST: Electrical activity assay on cell lines treated with a given drug. DMSO was used as a vehicle and a control, unblinded dofetilide was used as a control.
ASSAY_SETUP: human, ipsc-cm, 0.1 µM
MEASUREMENT_NAME: FPD measurement (FPDc)
Report the figure in FPDc without appending any unit label.

Illustrative cases are given below, each with its answer.
COc1ccc(CCN2CCC(Nc3nc4ccccc4n3Cc3ccc(F)cc3)CC2)cc1 [ASTEMIZOLE]: 75.34
COc1ccc([C@@H]2Sc3ccccc3N(CCN(C)C)C(=O)[C@@H]2OC(C)=O)cc1 [DILTIAZEM]: 45.42
COC(=O)C1=C(C)NC(C)=C(C(=O)OC)C1c1ccccc1[N+](=O)[O-] [NIFEDIPINE]: 24.94
CN1CCN(CCCCN2C(=O)CN(/N=C/c3ccc(-c4ccc(Cl)cc4)o3)C2=O)CC1 [AZIMILIDE]: 56.52

Q) Would you mind telling me what FPD measurement value was observed for Cc1nc2n(c(=O)c1CCN1CCC(c3noc4cc(F)ccc34)CC1)CCCC2 [RISPERIDONE] ?
A) 65.06

====

TEST: Electrical activity assay on cell lines treated with a given drug. DMSO was used as a vehicle and a control, unblinded dofetilide was used as a control.
ASSAY_SETUP: human, ipsc-cm, 0.1 µM
Known FPDc of a selection of molecules
Reply with just the number.

Illustrative cases are given below, each with its answer.
CC(C)(C)c1ccc(C(O)CCCN2CCC(C(O)(c3ccccc3)c3ccccc3)CC2)cc1 (stereo unspecified): 66.77
CC(C)COCC(CN(Cc1ccccc1)c1ccccc1)N1CCCC1 (stereo unspecified): 77.75
Cc1cccc(C)c1OCC(C)N (stereo unspecified): 67.46
COC(=O)C1=C(C)NC(C)=C(C(=O)OC)C1c1ccccc1[N+](=O)[O-]: 51.56

Q) Would you mind telling me what FPDc value was observed for CN1CCN(CCCCN2C(=O)CN(/N=C/c3ccc(-c4ccc(Cl)cc4)o3)C2=O)CC1 [AZIMILIDE] ?
A) 69.12

====

Known FPDc of a selection of compounds
TEST: Electrical activity assay on cell lines treated with a given drug. DMSO was used as a vehicle and a control, unblinded dofetilide was used as a control.
Type: ADME, cell-based
Set-up: unit not given here
ASSAY_SETUP: human, ipsc-cm, 10 µM; concentration (um) 10 uM
Reply with just the number.

COc1ccccc1OCC(O)CN1CCN(CC(=O)Nc2c(C)cccc2C)CC1 (stereo not given): 48.79
COc1cc2c(Nc3ccc(Br)cc3F)ncnc2cc1OCC1CCN(C)CC1: 73.71
CC(C)NCC(O)c1ccc(NS(C)(=O)=O)cc1 (stereo not given): 57.04
CC(C)N(CCC(C(N)=O)(c1ccccc1)c1ccccn1)C(C)C (stereo not given) [DISOPYRAMIDE]: 26.6

# input for lookup
Q) Would you mind telling me what FPDc value was observed for Cc1cccc(C)c1OCC(C)N (stereo not given) ?
A) 64.26
